# measured_target: Human recombinant MMP-13 (Homo sapiens)
# test_method_notes: In vitro MMP inhibition assay, MMP-13 (fluorogenic peptide substrate cleavage, Ki)
# protocol_conditions: human MMP-13, full length (FL); read-out: hMMP Ki 13/FL
pKi: −log10 of the molar value.
Recorded pKi by entry
result_type: pKi

1) COc1cc(CNC(=O)c2nc3scc(COC[C@H]4CC[C@H](CO)CC4)c3c(=O)[nH]2)ccc1F [Example 9] : 9.06
2) COc1cccc(CNC(=O)c2nc3scc(COCCC4CCN(C(C)=O)CC4)c3c(=O)[nH]2)c1 [Example 28] : 8.50
3) COc1cccc(CNC(=O)c2nc3scc(COC[C@H]4CC[C@H](C(=O)O)CC4)c3c(=O)[nH]2)c1 [Example 5] : 9.66
4) COc1cc(CNC(=O)c2nc3scc(COC[C@H]4CC[C@H](NS(C)(=O)=O)CC4)c3c(=O)[nH]2)ccc1F [Example 18] : 9.14
5) COc1cccc(CNC(=O)c2nc3scc(COC[C@@H]4CO[C@@H](CO)CO4)c3c(=O)[nH]2)c1 (relative stereo) [Example 7] : 7.94
6) COc1cccc(CNC(=O)c2nc3scc(COCCC4CCN(S(C)(=O)=O)CC4)c3c(=O)[nH]2)c1 [Example 27] : 8.75
7) COc1cccc(CNC(=O)c2nc3ccc(F)c(OC[C@H]4CC[C@H](CO)CC4)c3c(=O)[nH]2)c1 [Example 29] : 9.43

* * *

# measured_target: Human recombinant MMP-15 (Homo sapiens, UniProt P51511)
# Construct: The catalytic domain of MMP-12 and MMP-15 enzymes were purchased commercially for these assays
# Sequence (P51511 132-304 limits assumed): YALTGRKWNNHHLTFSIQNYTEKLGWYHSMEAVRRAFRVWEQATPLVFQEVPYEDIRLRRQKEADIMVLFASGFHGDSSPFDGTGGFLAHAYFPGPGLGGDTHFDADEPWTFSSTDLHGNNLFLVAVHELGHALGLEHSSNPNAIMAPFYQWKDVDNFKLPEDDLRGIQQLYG
# test_method_notes: In vitro MMP inhibition assay, MMP-15 catalytic domain (fluorogenic peptide substrate cleavage, Ki)
# protocol_conditions: human MMP-15, catalytic domain (CD); read-out: hMMP Ki 15/CD
pKi: −log10 of the molar value.
Recorded pKi by entry
result_type: pKi

1. COc1cc(CNC(=O)c2nc3scc(COC[C@H]4CC[C@H](CO)CC4)c3c(=O)[nH]2)ccc1F [Example 9] : < 5.00
2. COc1cc(CNC(=O)c2nc3scc(COC[C@H]4CC[C@H](NS(C)(=O)=O)CC4)c3c(=O)[nH]2)ccc1F [Example 18] : < 5.00
3. COc1cc(CNC(=O)c2nc3scc(COC[C@H]4CC[C@H](NC(C)=O)CC4)c3c(=O)[nH]2)ccc1F [Example 19] : < 5.00
4. COc1cccc(CNC(=O)c2nc3scc(COC[C@@H]4CO[C@@H](CO)CO4)c3c(=O)[nH]2)c1 (relative stereo) [Example 7] : < 5.00
5. COc1cccc(CNC(=O)c2nc3ccc(F)c(OCCC4CCN(C(=O)CO)CC4)c3c(=O)[nH]2)c1 [Example 34] : < 5.00

* * *

# measured_target: catalytic domain of human recombinant MMP-3 (Homo sapiens, UniProt P08254)
# Sequence (P08254 100-272 limits assumed): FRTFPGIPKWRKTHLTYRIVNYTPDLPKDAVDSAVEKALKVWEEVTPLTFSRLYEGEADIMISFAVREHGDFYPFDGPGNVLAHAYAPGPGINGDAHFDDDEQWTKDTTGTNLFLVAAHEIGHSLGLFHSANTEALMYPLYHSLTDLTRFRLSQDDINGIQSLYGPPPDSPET
# test_method_notes: In vitro MMP inhibition assay, MMP-3 catalytic domain (fluorogenic peptide substrate cleavage, Ki)
# protocol_conditions: human MMP-3, catalytic domain (CD); read-out: hMMP Ki 03/CD
pKi: −log10 of the molar value.
result_type: pKi

1. COc1cccc(CNC(=O)c2nc3scc(COC[C@H]4CC[C@H](NC(=O)CO)CC4)c3c(=O)[nH]2)c1 : 6.17
2. COc1cc(CNC(=O)c2nc3scc(COC[C@@H]4CO[C@@H](CO)CO4)c3c(=O)[nH]2)ccc1F (relative stereo) : 6.18
3. COc1cc(CNC(=O)c2nc3scc(COC[C@H]4CC[C@H](NC(C)=O)CC4)c3c(=O)[nH]2)ccc1F : 5.91
4. COc1cccc(CNC(=O)c2nc3scc(COC[C@H]4CC[C@H](C#N)CC4)c3c(=O)[nH]2)c1 : 6.33

* * *

# measured_target: Human recombinant MMP-12 (Homo sapiens)
# Construct: The catalytic domain of MMP-12 and MMP-15 enzymes were purchased commercially for these assays; purchased
# Sequence (P39900 106-263 limits assumed): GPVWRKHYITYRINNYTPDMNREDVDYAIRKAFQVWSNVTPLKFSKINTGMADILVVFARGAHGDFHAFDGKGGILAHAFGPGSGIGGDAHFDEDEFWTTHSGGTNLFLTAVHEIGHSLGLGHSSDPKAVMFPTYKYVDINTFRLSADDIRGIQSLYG
# test_method_notes: In vitro MMP inhibition assay, MMP-12 catalytic domain (fluorogenic peptide substrate cleavage, Ki)
# Type: biochemical
# protocol_conditions: human MMP-12, catalytic domain (CD); read-out: hMMP Ki 12/CD
Recorded Ki by entry
result_type: Ki

1) COc1cc(CNC(=O)c2nc3scc(COC[C@H]4CC[C@H](NC(C)=O)CC4)c3c(=O)[nH]2)ccc1F [Example 19] : > 10 µM
2) COc1cc(CNC(=O)c2nc3scc(COC[C@H]4CC[C@H](CO)CC4)c3c(=O)[nH]2)ccc1F [Example 9] : > 10 µM
3) COc1cccc(CNC(=O)c2nc3scc(COC[C@@H]4CO[C@@H](CO)CO4)c3c(=O)[nH]2)c1 (relative stereo) [Example 7] : > 10 µM
4) COc1cccc(CNC(=O)c2nc3ccc(F)c(OCCC4CCN(C(=O)CO)CC4)c3c(=O)[nH]2)c1 [Example 34] : 6.53 µM
5) COc1cc(CNC(=O)c2nc3scc(COC[C@H]4CC[C@H](NS(C)(=O)=O)CC4)c3c(=O)[nH]2)ccc1F [Example 18] : > 10 µM

* * *

# measured_target: catalytic domain of human recombinant MMP-3 (Homo sapiens)
# test_method_notes: In vitro MMP inhibition assay, MMP-3 catalytic domain (fluorogenic peptide substrate cleavage, Ki)
# protocol_conditions: human MMP-3, catalytic domain (CD); read-out: hMMP Ki 03/CD
pKi: −log10 of the molar value.
Classify as follows. Reported pKi greater than or equal to 6: true (1). Reported pKi below: false (0).

1) COc1cccc(CNC(=O)c2nc3ccc(F)c(OC[C@H]4CC[C@H](CO)CC4)c3c(=O)[nH]2)c1 : false (0)
2) COc1cccc(CNC(=O)c2nc3scc(COC[C@H]4CC[C@H](NS(C)(=O)=O)CC4)c3c(=O)[nH]2)c1 : true (1)
3) COc1cccc(CNC(=O)c2nc3ccc(F)c(OCCC4CCN(CCO)CC4)c3c(=O)[nH]2)c1 : false (0)
4) COc1cccc(CNC(=O)c2nc3scc(COC[C@H]4CC[C@H](CO)CC4)c3c(=O)[nH]2)c1 : true (1)
5) COc1cccc(CNC(=O)c2nc3scc(COC[C@@H]4CO[C@@H](CO)CO4)c3c(=O)[nH]2)c1 (relative stereo) : false (0)
6) COc1cc(CNC(=O)c2nc3scc(COC[C@H]4CC[C@H](C#N)CC4)c3c(=O)[nH]2)ccc1F : true (1)
7) COc1cccc(CNC(=O)c2nc3scc(COC[C@H]4CC[C@H](CNS(C)(=O)=O)CC4)c3c(=O)[nH]2)c1 : true (1)
8) COc1cc(CNC(=O)c2nc3scc(COC[C@H]4CC[C@H](C(N)=O)CC4)c3c(=O)[nH]2)ccc1F : true (1)
9) COc1cccc(CNC(=O)c2nc3ccc(F)c(OCCC4CCN(C(=O)CO)CC4)c3c(=O)[nH]2)c1 : false (0)
10) COc1cc(CNC(=O)c2nc3scc(COC[C@H]4CC[C@H](NC(=O)CO)CC4)c3c(=O)[nH]2)ccc1F : true (1)
11) COc1cc(CNC(=O)c2nc3scc(COC[C@H]4CC[C@H](C(=O)O)CC4)c3c(=O)[nH]2)ccc1F : true (1)
12) COc1cccc(CNC(=O)c2nc3ccc(F)c(OCCC4CCN(C(C)=O)CC4)c3c(=O)[nH]2)c1 : false (0)
13) COc1cccc(CNC(=O)c2nc3ccc(F)c(OC[C@H]4CO[C@H](CO)CO4)c3c(=O)[nH]2)c1 (relative stereo) : false (0)
14) COc1cccc(CNC(=O)c2nc3scc(COC[C@H]4CC[C@H](C(=O)O)CC4)c3c(=O)[nH]2)c1 : true (1)
15) COc1cccc(CNC(=O)c2nc3ccc(F)c(OCCC4CCNCC4)c3c(=O)[nH]2)c1 : false (0)

* * *

Recorded pKi by entry
# measured_target: Human recombinant MMP-13 (Homo sapiens)
# test_method_notes: In vitro MMP inhibition assay, MMP-13 (fluorogenic peptide substrate cleavage, Ki)
# protocol_conditions: human MMP-13, full length (FL); read-out: hMMP Ki 13/FL
pKi: −log10 of the molar value.
result_type: pKi

1) COc1cc(CNC(=O)c2nc3scc(COC[C@@H]4CO[C@@H](C(=O)O)CO4)c3c(=O)[nH]2)ccc1F (relative stereo) : 8.79
2) COc1cc(CNC(=O)c2nc3scc(COC[C@H]4CC[C@H](NC(C)=O)CC4)c3c(=O)[nH]2)ccc1F : 8.61
3) COc1cc(CNC(=O)c2nc3scc(COC[C@@H]4CO[C@@H](C(N)=O)CO4)c3c(=O)[nH]2)ccc1F (relative stereo) : 8.39
4) COc1cccc(CNC(=O)c2nc3ccc(F)c(OCCC4CCN(C(C)=O)CC4)c3c(=O)[nH]2)c1 : 9.74
5) COc1cc(CNC(=O)c2nc3scc(COC[C@@H]4CO[C@@H](CO)CO4)c3c(=O)[nH]2)ccc1F (relative stereo) : 7.96
6) COc1cccc(CNC(=O)c2nc3scc(COC[C@H]4CC[C@H](CNS(C)(=O)=O)CC4)c3c(=O)[nH]2)c1 : 9.25
7) COc1cccc(CNC(=O)c2nc3scc(COC[C@@H]4CO[C@@H](C(=O)O)CO4)c3c(=O)[nH]2)c1 (relative stereo) : 8.38
8) COc1cccc(CNC(=O)c2nc3scc(COC[C@H]4CC[C@H](NC(=O)CO)CC4)c3c(=O)[nH]2)c1 : 8.90
9) COc1cc(CNC(=O)c2nc3scc(COC[C@H]4CC[C@H](C(N)=O)CC4)c3c(=O)[nH]2)ccc1F : 9.85
10) COc1cccc(CNC(=O)c2nc3scc(COC[C@H]4CC[C@H](N)CC4)c3c(=O)[nH]2)c1 : 7.89
11) COc1cc(CNC(=O)c2nc3scc(COC[C@H]4CC[C@H](C#N)CC4)c3c(=O)[nH]2)ccc1F : 9.32
12) COc1cccc(CNC(=O)c2nc3scc(COC[C@H]4CC[C@H](NS(C)(=O)=O)CC4)c3c(=O)[nH]2)c1 : 9.39
13) COc1cccc(CNC(=O)c2nc3ccc(F)c(OCCC4CCN(C(=O)CO)CC4)c3c(=O)[nH]2)c1 : 9.93
14) COc1cc(CNC(=O)c2nc3scc(COC[C@H]4CC[C@H](NC(=O)CO)CC4)c3c(=O)[nH]2)ccc1F : 9.24
